Hello, the source for this data is PubChem BioAssay, in case you need it.

Recorded inhibition for the following compounds
experiment: growth inhibition, single agents and combos, LFS_MB_1R, cell-based, cisplatin or BGB combos, synergistic combos for chromothripsis tumors (AID 1671452); details: LFS_MB_1R medulloblastoma cells, at 0.5 µM, stronger effect = higher value;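 also: cells exposed for 96 hours before readout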
Reply numerically in %, unit not repeated.

Previously resolved entries follow.
compound | quantity unit | inhibition
O=c1cc(-c2ccc(O)cc2)[nH]c(=S)[nH]1 | % | -1.38
Cn1cnc2[nH]c(=O)[nH]c(=O)c21 | % | -24.6

Ask | Need inhibition, item CCC(C)C(=O)OC1CC(C)C=C2C=CC(C)C(CCC3CC(O)CC(=O)O3)C21 (centres undefined)
Reply | 22

Ask | Which value of inhibition has been reported for COc1ccccc1S(=O)(=O)Nc1ccc2c(c1)CN(C)C(=O)N2 in the records?
Reply | -15.2

Ask | Bench note: what inhibition did C=C1C(=O)O[C@@H]2C=C(C)CCC=C(C)CC[C@@H]12 show?
Reply | -31.9

Ask | What value of inhibition has been recorded for this entry: C#CCC(CCCCCC)C(=O)O (centres undefined)
Reply | 3.82

Ask | Which value of inhibition has been reported for O=c1ccn(C2CC(O)C(CO)O2)c(=O)[nH]1 (centres undefined) in the records?
Reply | -29.6

* * *

Below: a set of entries, each annotated with reported inhibition.
test: growth inhibition, MDA-MB-436, cell-based, BGB or cisplatin combos, synergistic combos for chromothripsis tumors (AID 1671458); settings: MDA-MB-436 breast carcinoma growth inhibition, drug combinations; measured here: BGB combination; at 5 µM; stronger effect = higher value;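 also: cells exposed for 96 hours; 0% = vehicle DMSO and 100% = killing by high DMSO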
Give the number; % is assumed, so skip it.

compound | quantity | reported measurement
C=C(NC(=O)C(=C)NC(=O)c1csc(C2=NC3c4csc(n4)C4NC(=O)c5csc(n5)C(C(C)(O)C(C)O)NC(=O)C5CSC(=N5)/C(=C/C)NC(=O)C(C(C)O)NC(=O)c5csc(n5)C3(CC2)NC(=O)C(C)NC(=O)C(=C)NC(=O)C(C)NC(=O)C(C(C)CC)NC2C=Cc3c(C(C)O)cc(nc3C2O)C(=O)OC4C)n1)C(N)=O (stereo not drawn) | inhibition | 90.8
Cc1ccc([N+](=O)[O-])cc1S(=O)(=O)N(C)/N=C\c1cnc2ccc(Br)cn12 | inhibition | 55.5
O=c1ccn(C2CC(O)C(CO)O2)c(=O)[nH]1 (stereo not drawn) | inhibition | -25.5
CC(C=CC(=O)NO)=CC(C)C(=O)c1ccc(N(C)C)cc1 (stereo not drawn) | inhibition | 63.1
C[C@H](NC(=O)c1ccccc1N=Cc1c(O)ccc2ccccc12)c1ccccc1 | inhibition | -1.84
CCC(Sc1nnc2c3ccccc3n(CC)c2n1)C(=O)Nc1ccccc1OC (stereo not drawn) | inhibition | -14.5
Cc1ccc(NC(=O)CCCCCC(=O)Nc2ccccc2N)cc1 | inhibition | -14.6

Ask | Quick one: inhibition for CON=C1CN(c2nc3c(cc2F)c(=O)c(C(=O)O)cn3C2CC2)CC1CN (stereo not drawn) ?
Reply | -21.3

* * *

experiment: P. berghei load reduction in hepatocytes – cell-based, HepG2, luciferase luminescence, HepG2 viability, primary screen (AID 624349);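 also: 100% = mean of DMSO negative control wells on the same plate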; conditions: P. berghei liver stage in HepG2, luciferase luminescence, concentration not given here; measured here: HepG2 viability without parasites
We begin with a simple list: items and their reported viability.
Give your result in % as a bare value.

Known results for molecules:
molecule | quantity | quantity unit | reported measurement
CC(C)(C)C(=O)OCOC(=O)[C@@H]1N2C(=O)[C@@H](N=CN3CCCCCC3)[C@H]2SC1(C)C | viability | % | 108
CCOCCOCCOCCOCCOCCOCCOCCOCCOCCO (tested in a mixture with another compound) | viability | % | 102
CC#CC(=O)Nc1cc2c(Nc3ccc(F)c(Cl)c3)ncnc2cn1 | viability | % | 159
CN[C@H]1[C@@H](O)[C@H](O[C@H]2[C@@H](O)[C@@H](OC3OC(CN)=CCC3N)[C@H](N)C[C@@H]2N)OC[C@@]1(C)O (stereo partly specified) | viability | % | 113
COC(=O)[C@@H]1CC(=O)O[C@H](C)C/C=C/C=C/[C@H](O)[C@H](C)C[C@H](CC=O)[C@H](OC2O[C@H](C)[C@@H](OC3C[C@@](C)(O)[C@@H](OC(=O)CC(C)C)[C@H](C)O3)[C@H](N(C)C)[C@H]2O)[C@H]1OC (stereo partly specified) | viability | % | 138
CO[C@@H]1[C@@H](OC(N)=O)[C@H](O)[C@H](Oc2ccc3c(O)c(NC(=O)c4ccc(O)c(CC=C(C)C)c4)c(=O)oc3c2C)OC1(C)C | viability | % | 108

Ask | Given the molecule c1ccc2c3c([nH]c2c1)[C@H]1C2CCC([C@@H]4CCCN[C@H]24)N1CC3 (stereo partly specified) , what is its reported viability?
Reply | 93.6

Ask | // lookup viability for O=C(O)c1cc2ccccc2c(Cc2cc3ccccc3c(C(=O)O)c2O)c1O (tested in a mixture with another compound)
Reply | 76.8

Ask | Quick check: viability of C=CC1=C(C(=O)O)N2C(=O)[C@@H](NC(=O)/C(=N/OCC(=O)O)c3csc(N)n3)[C@H]2SC1 (stereo in doubt) ?
Reply | 73.2
